molecular target: HRgpA-6H (Porphyromonas gingivalis) (UniProt P28784); test: ELISA, coated HRgpA-6H
readout type: Ratio OD(Variant)/OD(WT)
Enter the number alone.

**Query** // query Ratio OD(Variant)/OD(WT) value for entry KB001 mouse Fab VL S27K/S68Y (Fab, V domains shown) VH: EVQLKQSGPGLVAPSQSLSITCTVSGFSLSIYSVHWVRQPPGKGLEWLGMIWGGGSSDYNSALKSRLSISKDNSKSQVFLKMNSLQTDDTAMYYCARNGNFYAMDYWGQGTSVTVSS VL: QIVLTQSPAIMSASLGERVTMTCTASKSVSSSFLHWYQQKPGSSPQLWIYSTSNLASGVPARFSGSGYGTSYSLTISSMEAEDAATYYCHQYHHSPYIYTFGGGTKLEIK
**Result** 0.981

**Query** Give the measured Ratio OD(Variant)/OD(WT) of KB001 mouse Fab VL S31W (Fab, V domains shown) VH: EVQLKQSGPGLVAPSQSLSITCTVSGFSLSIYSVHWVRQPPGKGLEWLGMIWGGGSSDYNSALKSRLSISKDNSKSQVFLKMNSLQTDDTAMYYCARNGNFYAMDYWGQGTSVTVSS VL: QIVLTQSPAIMSASLGERVTMTCTASSSVSWSFLHWYQQKPGSSPQLWIYSTSNLASGVPARFSGSGSGTSYSLTISSMEAEDAATYYCHQYHHSPYIYTFGGGTKLEIK .
**Result** 0.956

**Query** Which Ratio OD(Variant)/OD(WT) reading was recorded for the binder KB001 mouse Fab VL N54R (Fab, V domains shown) VH: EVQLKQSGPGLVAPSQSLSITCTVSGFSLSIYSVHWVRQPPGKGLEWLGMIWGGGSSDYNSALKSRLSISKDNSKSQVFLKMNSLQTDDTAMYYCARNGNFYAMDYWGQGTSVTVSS VL: QIVLTQSPAIMSASLGERVTMTCTASSSVSSSFLHWYQQKPGSSPQLWIYSTSRLASGVPARFSGSGSGTSYSLTISSMEAEDAATYYCHQYHHSPYIYTFGGGTKLEIK ?
**Result** 1.12

**Query** For the binder KB001 mouse Fab VH A62L (Fab, V domains shown) VH: EVQLKQSGPGLVAPSQSLSITCTVSGFSLSIYSVHWVRQPPGKGLEWLGMIWGGGSSDYNSLLKSRLSISKDNSKSQVFLKMNSLQTDDTAMYYCARNGNFYAMDYWGQGTSVTVSS VL: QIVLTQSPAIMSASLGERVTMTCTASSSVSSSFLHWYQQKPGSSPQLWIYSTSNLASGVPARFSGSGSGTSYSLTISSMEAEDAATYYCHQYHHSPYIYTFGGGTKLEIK , what Ratio OD(Variant)/OD(WT) is on record?
**Result** 0.929

**Query** For KB001 mouse Fab VL S26G (Fab, V domains shown) VH: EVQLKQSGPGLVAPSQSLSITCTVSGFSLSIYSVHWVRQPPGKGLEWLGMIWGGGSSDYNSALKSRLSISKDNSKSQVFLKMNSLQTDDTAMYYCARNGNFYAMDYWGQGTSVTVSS VL: QIVLTQSPAIMSASLGERVTMTCTAGSSVSSSFLHWYQQKPGSSPQLWIYSTSNLASGVPARFSGSGSGTSYSLTISSMEAEDAATYYCHQYHHSPYIYTFGGGTKLEIK , what is its reported Ratio OD(Variant)/OD(WT)?
**Result** 0.932
